Hello, the source for this data is patent US20040024024A1, in case you need it.

Test Target: Human recombinant MMP-2 (Homo sapiens)
Construct: made in house; host or cells: MMP-2-transfected p2AHT2 cells
Sequence (P08253 110-660): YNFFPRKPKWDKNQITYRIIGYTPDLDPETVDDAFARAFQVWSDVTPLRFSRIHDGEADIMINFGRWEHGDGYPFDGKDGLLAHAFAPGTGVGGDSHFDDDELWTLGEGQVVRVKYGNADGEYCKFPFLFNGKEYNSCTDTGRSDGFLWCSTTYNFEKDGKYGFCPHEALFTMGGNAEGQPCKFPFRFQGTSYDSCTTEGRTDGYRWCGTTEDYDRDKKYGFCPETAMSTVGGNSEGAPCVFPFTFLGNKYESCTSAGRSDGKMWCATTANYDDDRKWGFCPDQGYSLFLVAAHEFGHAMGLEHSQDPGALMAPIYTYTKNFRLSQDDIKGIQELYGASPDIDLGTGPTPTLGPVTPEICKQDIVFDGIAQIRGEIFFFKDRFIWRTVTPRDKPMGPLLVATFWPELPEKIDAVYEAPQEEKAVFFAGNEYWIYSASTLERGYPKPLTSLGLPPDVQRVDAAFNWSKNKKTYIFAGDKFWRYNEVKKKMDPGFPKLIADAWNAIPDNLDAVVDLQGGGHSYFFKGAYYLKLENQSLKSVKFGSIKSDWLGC
Protocol Summary: In vitro MMP inhibition, IC50 determination (fluorogenic substrate I)
Type: biochemical
Assay Context: value outside parentheses
Method: Several hydroxamates and salts thereof were analyzed in in vitro assays to determine their ability to inhibit the MMP cleavage of peptide substrates. Inhibition (Ki) and IC50 constants were calculated from the assayed hydroxamate-MMP interactions. […] The assays from which the IC50 determinations were made were performed as follows. […] The assayed hydroxamate samples were, incubated in Microfluorrm White Plates (Dynatech, Chantilly, VA) and analyzed on a Perkin Elmer L550 plate reader (Norwalk, Conn.). […]
Assay Readout: log10 IC50 (log10 of the value in nM)
Scale: decimal log of IC50, IC50 in nM.

Worked set:
- Compound: "O=C(NO)C1(S(=O)(=O)c2ccc(OCCCc3nnc(-c4ccncc4)o3)cc2)CCOCC1"
  Numeric Result: 1.32
- Compound: "O=C(NCCOc1ccc(S(=O)(=O)C2(C(=O)NO)CCOCC2)cc1)c1nc2ccccc2s1"
  Numeric Result: 1.00
- Compound: "O=C(NO)C1(S(=O)(=O)c2ccc(OCCCc3cccc(-c4cc5ccccc5s4)c3)cc2)CCOCC1"
  Numeric Result: 3.45
- Compound: "O=C(NCCNc1ccc(S(=O)(=O)C2(C(=O)NO)CCOCC2)cc1)c1cc2ccccc2o1"
  Numeric Result: 2.57
- Compound: "O=C(NO)C1(S(=O)(=O)c2ccc(OCCCc3cccc(-c4ccc(F)cc4F)c3)cc2)CCOCC1"
  Numeric Result: 3.07

Hey, can you go through the list below and give me log10 IC50 for every item?
1. O=C(NO)C1(S(=O)(=O)c2ccc(OCCOc3cccc(F)c3)cc2)CCOCC1
2. CN(CCCOc1ccc(S(=O)(=O)C2(C(=O)NO)CCN(C3CC3)CC2)cc1)C(=O)C1C2CC3CC(C2)CC1C3 (centres unmarked)
3. O=C(NO)C1(S(=O)(=O)c2ccc(OCCCc3cccc(-c4ccc5c(c4)OCO5)c3)cc2)CCOCC1
4. N=C(NCCOc1ccc(S(=O)(=O)C2(C(=O)NO)CCOCC2)cc1)c1ccccc1
5. CC(=O)c1cccc(CCCOc2ccc(S(=O)(=O)C3(C(=O)NO)CCOCC3)cc2)c1
6. O=C(NO)C1(S(=O)(=O)c2ccc(OCCOCc3cccc(F)c3)cc2)CCOCC1

Out:
[1.29, 3.42, 3.23, 2.31, 1.00, 1.40]

Hey, can you go through the list below and give me log10 IC50 for every item?
1. O=C(NO)C1(S(=O)(=O)c2ccc(OCCCc3cncc(Br)c3)cc2)CCOCC1
2. O=C(NO)C1(S(=O)(=O)c2ccc(OCCCS(=O)(=O)NC34CC5CC(CC(C5)C3)C4)cc2)CCOCC1
3. O=C(NO)C1(S(=O)(=O)c2ccc(OCCOCc3ccccc3)cc2)CCOCC1
4. O=C(NCCCOc1ccc(S(=O)(=O)C2(C(=O)NO)CCOCC2)cc1)N1CCOCC1
5. O=C(NO)C1(S(=O)(=O)c2ccc(OCCc3cccc(-c4cncnc4)c3)cc2)CCOCC1

Out:
[1.11, 1.36, 1.40, 3.16, 1.79]

###

Test Target: Human recombinant MMP-14 (Homo sapiens)
Construct: The catalytic domain enzyme was expressed in E. coli inclusion bodies, solubilized in urea; made in house
Protocol Summary: In vitro MMP inhibition, IC50 determination (fluorogenic substrate I)
Assay type: biochemical
Assay Context: value outside parentheses (Ki in parenthesis)
pIC50: −log10 of the molar value.
Assay Readout: pIC50

- Molecule: "CC(C)(C)c1ccc(C(=O)CCCCOc2ccc(S(=O)(=O)C3(C(=O)NO)CCOCC3)cc2)cc1 [Example 327]"
  Result: "< 5.00"
- Molecule: "COC(C)CCOc1ccc(S(=O)(=O)C2(C(=O)NO)CCOCC2)cc1 (stereo not shown) [Example 472]"
  Result: 6.40
- Molecule: "Cc1ccc2c(c1)CCCN2CCCCCOc1ccc(S(=O)(=O)C2(C(=O)NO)CCOCC2)cc1 [Example 415]"
  Result: "< 5.00"
- Molecule: "COc1cc2c(cc1OC)C(C)N(C(=O)OCCCCOc1ccc(S(=O)(=O)C3(C(=O)NO)CCOCC3)cc1)CC2 (stereo not shown) [Example 335]"
  Result: "< 5.00"

Hey, can you go through the list below and give me pIC50 for every item?
1. CCCC(C)C(=O)NCCCOc1ccc(S(=O)(=O)C2(C(=O)NO)CCOCC2)cc1 (stereo not shown) [Example 403]
2. O=C(CCCCOc1ccc(S(=O)(=O)C2(C(=O)NO)CCOCC2)cc1)c1ccc2ccccc2c1 [Example 489]
3. CC(C)(C)C1CCN(S(=O)(=O)CCCOc2ccc(S(=O)(=O)C3(C(=O)NO)CCOCC3)cc2)CC1 [Example 310]
4. O=C(NCCCOc1ccc(S(=O)(=O)C2(C(=O)NO)CCOCC2)cc1)C12CC3CC(CC(C3)C1)C2 [Example 405]
5. COC(C)(C)CCOc1ccc(S(=O)(=O)C2(C(=O)NO)CCOCC2)cc1 [Example 473]
6. COc1ccc(C(=O)C(C)CCOc2ccc(S(=O)(=O)C3(C(=O)NO)CCOCC3)cc2)cc1 (stereo not shown) [Example 306]
7. CN(CCc1ccccc1)S(=O)(=O)CCCOc1ccc(S(=O)(=O)C2(C(=O)NO)CCOCC2)cc1 [Example 292]
8. O=C(NO)C1(S(=O)(=O)c2ccc(OCCSc3nc4c(Cl)cc(Cl)cc4o3)cc2)CCOCC1 [Example 409]

Out:
1. < 5.00
2. < 5.00
3. < 5.00
4. < 5.00
5. 6.22
6. < 5.00
7. < 5.00
8. 5.25

###

Test Target: Human recombinant MMP-9 (Homo sapiens, UniProt P14780)
Construct: made in house; host or cells: MMP-9-transfected HT1080 cells (spent media)
Sequence (P14780 107-707 limits assumed): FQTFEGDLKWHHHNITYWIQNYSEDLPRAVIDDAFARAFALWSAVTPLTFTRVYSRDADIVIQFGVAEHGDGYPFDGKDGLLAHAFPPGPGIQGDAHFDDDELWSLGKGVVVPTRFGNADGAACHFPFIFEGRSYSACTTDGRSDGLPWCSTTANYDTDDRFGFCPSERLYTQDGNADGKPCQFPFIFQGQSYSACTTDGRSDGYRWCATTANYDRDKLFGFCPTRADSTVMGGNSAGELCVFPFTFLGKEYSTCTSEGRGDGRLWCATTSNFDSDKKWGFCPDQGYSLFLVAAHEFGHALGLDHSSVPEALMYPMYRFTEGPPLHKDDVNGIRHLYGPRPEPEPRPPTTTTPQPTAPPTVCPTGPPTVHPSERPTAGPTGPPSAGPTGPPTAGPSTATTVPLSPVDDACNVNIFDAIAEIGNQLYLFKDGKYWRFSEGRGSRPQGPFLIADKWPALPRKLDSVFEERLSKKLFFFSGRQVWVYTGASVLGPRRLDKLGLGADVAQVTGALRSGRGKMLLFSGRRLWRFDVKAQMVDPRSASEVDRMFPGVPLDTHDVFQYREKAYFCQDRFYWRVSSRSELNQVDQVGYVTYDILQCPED
Protocol Summary: In vitro MMP inhibition, IC50 determination (fluorogenic substrate I)
Format: biochemical
Assay Context: value outside parentheses (Ki in parenthesis)
Can you tell me pIC50 for the items I'm about to list?
Answers are plain numbers, as −log10 of the molar value.

Worked set:
- Smiles: "COC(C)(C)CCOc1ccc(S(=O)(=O)C2(C(=O)NO)CCOCC2)cc1"
  pIC50: 7.35
- Smiles: "CN(C)c1ccc(/C=C/CCCOc2ccc(S(=O)(=O)C3(C(=O)NO)CCOCC3)cc2)cc1"
  pIC50: 6.59

Now consider the entry below.
In: Recorded pIC50 for O=C(NO)C1(S(=O)(=O)c2ccc(OCCC3CCCCC3)cc2)CCOCC1 , please?
Out: 7.47

###

Can you tell me Ki for the items I'm about to list?
Test Target: Human recombinant MMP-9 (Homo sapiens, UniProt P14780)
Construct: made in house; host or cells: MMP-9-transfected HT1080 cells (spent media)
Protocol Summary: In vitro MMP inhibition, Ki determination (fluorogenic substrate II)
Assay type: biochemical
Assay Context: value in parentheses
Enter the number, and then the unit.

Worked set:
- Smiles: "COCCN1CCC(C(=O)NO)(S(=O)(=O)c2ccc(OCCc3cccc(-c4ccc(F)cc4)c3)cc2)CC1"
  Ki: "787 nM"
- Smiles: "O=C(NO)C1(S(=O)(=O)c2ccc(OCCc3ccc(-c4cccc(O)c4)cc3)cc2)CCOCC1"
  Ki: "1320 nM"
- Smiles: "O=C(NO)C1(S(=O)(=O)c2ccc(OCCCc3cccc(-c4ccc5ccccc5c4)c3)cc2)CCOCC1"
  Ki: "1300 nM"

Now consider the entry below.
In: Recorded Ki for O=C(NO)C1(S(=O)(=O)c2ccc(OCCCc3cccc(-c4ccsc4)c3)cc2)CCOCC1 , please?
Out: 716 nM

###

Test Target: Human recombinant MMP-1 (Homo sapiens, UniProt P03956)
Construct: made in house; host or cells: MMP-1-transfected HT-1080 cells (spent media)
Sequence (P03956 100-469): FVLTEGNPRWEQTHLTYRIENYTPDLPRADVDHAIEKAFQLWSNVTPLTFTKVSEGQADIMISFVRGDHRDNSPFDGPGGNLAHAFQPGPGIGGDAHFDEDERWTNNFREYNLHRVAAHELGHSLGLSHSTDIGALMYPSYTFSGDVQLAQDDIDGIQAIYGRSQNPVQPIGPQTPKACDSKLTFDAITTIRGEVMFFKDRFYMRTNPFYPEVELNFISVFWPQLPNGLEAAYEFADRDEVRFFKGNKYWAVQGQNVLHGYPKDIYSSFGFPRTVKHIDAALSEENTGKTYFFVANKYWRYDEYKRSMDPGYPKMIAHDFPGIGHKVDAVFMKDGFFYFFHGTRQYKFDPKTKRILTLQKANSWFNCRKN
Protocol Summary: In vitro MMP inhibition, IC50 determination (fluorogenic substrate I)
Format: biochemical
Assay Context: value outside parentheses
Can you tell me IC50 for the items I'm about to list?

- Molecule: "O=C(NO)C1(S(=O)(=O)c2ccc(OCCOc3cccc(F)c3)cc2)CCOCC1 [Example 669]"
  Test Target: "Human recombinant MMP-1 (Homo sapiens, UniProt P03956)"
  IC50: "> 10 µM"
- Molecule: "O=C(NO)C1(S(=O)(=O)c2ccc(OCCCc3cncc(-c4ccccc4)c3)cc2)CCOCC1 [Example 524]"
  Test Target: "Human recombinant MMP-1 (Homo sapiens, UniProt P03956)"
  IC50: "> 10 µM"
- Molecule: "CC(=O)c1ccc(OCCOc2ccc(S(=O)(=O)C3(C(=O)NO)CCOCC3)cc2)cc1 [Example 659]"
  Test Target: "Human recombinant MMP-1 (Homo sapiens, UniProt P03956)"
  IC50: "> 10 µM"
- Molecule: "O=C(CCOc1ccc(S(=O)(=O)C2(C(=O)NO)CCOCC2)cc1)c1ccccc1 [Example 495]"
  Test Target: "Human recombinant MMP-1 (Homo sapiens, UniProt P03956)"
  IC50: "0.815 µM"
- Molecule: "O=C(NO)C1(S(=O)(=O)c2ccc(OCCOCc3cccc(F)c3)cc2)CCOCC1 [Example 663]"
  Test Target: "Human recombinant MMP-1 (Homo sapiens, UniProt P03956)"
  IC50: "> 10 µM"

Hey, can you go through the list below and give me IC50 for every item?
1. O=C(NCCSc1ccc(S(=O)(=O)C2(C(=O)NO)CCOCC2)cc1)c1nc2ccccc2o1 [Example 576]
2. O=C(NO)C1(S(=O)(=O)c2ccc(OCCOCc3cccnc3)cc2)CCOCC1 [Example 517]
3. O=C(NO)C1(S(=O)(=O)c2ccc(OCCCOCc3ccccn3)cc2)CCOCC1 [Example 519]
4. O=C(NO)C1(S(=O)(=O)c2ccc(OCCCc3cncc(-c4ccc(F)cc4)c3)cc2)CCOCC1 [Example 523]

Out:
1: > 10 µM; 2: > 10 µM; 3: > 10 µM; 4: 8.07 µM

Hey, can you go through the list below and give me IC50 for every item?
1. COC(=O)c1cccc(OCCOc2ccc(S(=O)(=O)C3(C(=O)NO)CCOCC3)cc2)c1 [Example 668]
2. O=C(NO)C1(S(=O)(=O)c2ccc(OCCOCc3cccc(OC(F)(F)F)c3)cc2)CCOCC1 [Example 660]
3. O=C(NO)C1(S(=O)(=O)c2ccc(OCCSc3nc4ccc(Cl)cc4o3)cc2)CCOCC1 [Example 502]
4. O=C(NO)C1(S(=O)(=O)c2ccc(OCCOCc3cccnc3)cc2)CCOCC1 [Example 518]
5. O=C(NO)C1(S(=O)(=O)c2ccc(OCCCc3cccc(-c4ccoc4)c3)cc2)CCOCC1 [Example 637]
6. O=C(CCCOc1ccc(S(=O)(=O)C2(C(=O)NO)CCOCC2)cc1)c1ccccc1 [Example 492]

Out:
1. 7.66 µM
2. 7.35 µM
3. > 10 µM
4. > 10 µM
5. > 10 µM
6. 3.55 µM
